ASSAY_SYSTEM: squalene synthetase (Homo sapiens)
Construct: This suspension was used as the enzyme solution; endogenous in cells; host or cells: HepG2 human hepatic carcinoma cells; membrane fraction (105000×g sediment) of the sonicate
Sequence (P37268 whole entry): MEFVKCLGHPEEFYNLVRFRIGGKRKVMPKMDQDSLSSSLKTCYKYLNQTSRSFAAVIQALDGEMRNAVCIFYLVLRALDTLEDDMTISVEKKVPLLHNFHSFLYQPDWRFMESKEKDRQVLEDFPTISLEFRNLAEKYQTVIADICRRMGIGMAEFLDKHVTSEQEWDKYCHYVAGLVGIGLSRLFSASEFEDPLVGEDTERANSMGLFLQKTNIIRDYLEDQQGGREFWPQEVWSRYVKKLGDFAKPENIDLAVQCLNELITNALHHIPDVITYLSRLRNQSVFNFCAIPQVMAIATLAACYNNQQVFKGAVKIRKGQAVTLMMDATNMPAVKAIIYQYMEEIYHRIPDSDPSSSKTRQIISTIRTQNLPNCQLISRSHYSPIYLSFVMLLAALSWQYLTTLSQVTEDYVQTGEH
EXPERIMENT_DESCRIPTION: Squalene synthetase inhibitory activity (human-derived enzyme prepared from HepG2 cells)
Format: biochemical
RUN_CONDITIONS: [1-3H] farnesyl pyrophosphate, 37° C., 45 minutes, read-out: Inhibitory Activity (IC50, 10^−9 M)
pIC50: −log10 of the molar value.
VALUE_KIND: pIC50

> print(dat)
                           structure.smiles  value.kind  experimental.result
1  COc1cccc([C@H]2O[C@H](CC(=O)NCCC(=O)O)C(=O)N(CC(C)(C)C)c3ccc(Cl)cc32)c1OC       pIC50                 7.96

(I) COc1cccc([C@H]2O[C@H](CC(=O)N3CCC(CC(=O)NS(C)(=O)=O)CC3)C(=O)N(CC(C)(C)CO)c3ccc(Cl)cc32)c1OC
(II) COc1cccc([C@H]2O[C@H](CC(=O)N(C)CC(=O)O)C(=O)N(CC(C)(C)C)c3ccc(Cl)cc32)c1OC
Query: Of I versus II , which is the one with smaller reported pIC50? Please reply using the label of the selected record.
Reply: I
(I: 7.59, II: 7.96)
